Target: Vasopressin V1a receptor (Rattus norvegicus)
Sequence (P30560 whole entry): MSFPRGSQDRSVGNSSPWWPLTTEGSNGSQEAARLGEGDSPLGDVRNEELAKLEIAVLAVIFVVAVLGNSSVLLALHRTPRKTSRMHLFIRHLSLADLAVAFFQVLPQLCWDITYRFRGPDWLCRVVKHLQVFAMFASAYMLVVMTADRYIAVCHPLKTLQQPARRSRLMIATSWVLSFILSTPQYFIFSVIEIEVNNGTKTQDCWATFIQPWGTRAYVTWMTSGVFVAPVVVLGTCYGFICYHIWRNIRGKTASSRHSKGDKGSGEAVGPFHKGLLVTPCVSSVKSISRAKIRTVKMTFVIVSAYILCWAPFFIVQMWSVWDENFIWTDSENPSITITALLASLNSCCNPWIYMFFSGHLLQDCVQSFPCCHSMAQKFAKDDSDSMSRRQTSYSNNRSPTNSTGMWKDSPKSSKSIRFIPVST
Assay: Displacement of [3H]AVP from AVP-V1a receptor binding site in rat liver
Lab note: anything with IC50 below 4 µM is marked true (1); values at 4 µM or higher are marked false (0).

Use these answered entries as a reference point.
> print(dat)
                                   compound  assigned.category
1      CC(=O)Nc1ccc(C(=O)N2CCCc3ccccc32)cc1          false (0)
2  O=C(Nc1ccc(C(=O)N2CCCc3ccccc32)cc1)c1ccc(Cl)cc1          false (0)
3  O=C(Nc1cccc(C(=O)N2CCCc3ccccc32)c1)c1ccccc1          false (0)

(Q) Lab note: IC50 threshold 4 µM. Does this compound come in strictly under it? CCCC(=O)Nc1ccc(C(=O)N2CCCc3ccccc32)cc1
(A) false (0)

(Q) Lab note: IC50 threshold 4 µM. Does this compound come in strictly under it? O=C(Nc1ccc(C(=O)N2CCCc3ccccc32)cc1)c1ccc(Cl)cc1Cl
(A) false (0)

(Q) Lab note: IC50 threshold 4 µM. Does this compound come in strictly under it? O=C(CCc1ccccc1)Nc1ccc(C(=O)N2CCCc3ccccc32)cc1
(A) true (1)

(Q) Lab note: IC50 threshold 4 µM. Does this compound come in strictly under it? O=C(Nc1ccc(C(=O)N2CCCC(N3CCCCC3)c3ccccc32)cc1)c1ccccc1Cl (stereo not given)
(A) true (1)

(Q) Lab note: IC50 threshold 4 µM. Does this compound come in strictly under it? CN(C)C1CCCN(C(=O)c2ccc(NC(=O)c3ccccc3[N+](=O)[O-])cc2)c2ccccc21 (stereo not given)
(A) true (1)

(Q) Lab note: IC50 threshold 4 µM. Does this compound come in strictly under it? CN(C)C1CCCN(C(=O)c2ccc(NC(=O)c3ccccc3N)cc2)c2ccccc21 (stereo not given)
(A) true (1)

(Q) Lab note: IC50 threshold 4 µM. Does this compound come in strictly under it? Cc1ccc(C(=O)Nc2ccc(C(=O)N3CCCc4ccccc43)cc2)c(C)c1
(A) true (1)

====

Biological target: Vasopressin V1a receptor (Rattus norvegicus)
Assay: Displacement of [3H]AVP from AVP-V1a receptor binding site in rat liver
pIC50: −log10 of the molar value.
Where pIC50 equals or exceeds 6, the correct label is Criterion met; where it does not, the label is Criterion not met.

Use these answered entries as a reference point.
> print(dat)
                                   molecule                              study.system  assigned.category
1  Cc1cccc(C(=O)Nc2ccc(C(=O)N3CCCC(N(C)C)c4ccccc43)cc2)c1 (stereo not given)  Vasopressin V1a receptor (Rattus norvegicus)  Criterion not met
2  O=C(Nc1ccc(C(=O)N2CCCCc3ccccc32)cc1)c1ccccc1Cl  Vasopressin V1a receptor (Rattus norvegicus)      Criterion met
3  O=C(Nc1ccc(C(=O)N2CCCc3ccccc32)cc1)c1ccsc1  Vasopressin V1a receptor (Rattus norvegicus)  Criterion not met

# ---- query molecule ----
(Q) Textbook exercise: given the entry Cc1ccccc1C(=O)Nc1ccc(C(=O)N2CCCC(N(C)CC#N)c3ccccc32)cc1 (stereo not given) , state whether its pIC50 is greater than or equal to 6.
(A) Criterion not met

====

Molecular target: UniProt:Q00788
Sequence (Q00788 whole entry): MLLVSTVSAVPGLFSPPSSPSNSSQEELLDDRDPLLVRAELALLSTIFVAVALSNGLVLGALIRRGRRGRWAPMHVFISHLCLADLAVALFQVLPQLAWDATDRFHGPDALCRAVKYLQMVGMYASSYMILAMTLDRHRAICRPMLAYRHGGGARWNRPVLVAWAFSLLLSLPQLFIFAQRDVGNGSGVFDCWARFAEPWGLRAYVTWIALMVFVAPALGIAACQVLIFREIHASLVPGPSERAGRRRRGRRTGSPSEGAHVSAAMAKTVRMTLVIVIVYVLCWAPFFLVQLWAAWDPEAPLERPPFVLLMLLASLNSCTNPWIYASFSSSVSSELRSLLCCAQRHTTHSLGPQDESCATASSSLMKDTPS
Assay: Displacement of [3H]-AVP from its AVP-V2 receptor binding site in rat kidney
READOUT_KIND: IC50 (nM)
Dear colleague, please return just the value in nM, with no unit written.

Use these answered entries as a reference point.
> print(dat)
                                   molecule    study.system  readout.number
1  Cc1ccccc1C(=O)Nc1ccc(C(=O)N2CCOCc3ccccc32)cc1  UniProt:Q00788             300
2  CCNC1CCCN(C(=O)c2ccc(NC(=O)c3ccccc3C)cc2)c2ccccc21 (stereo not given)  UniProt:Q00788              29
3  O=C(Nc1ccc(C(=O)N2CCCC(N3CCCCC3)c3ccccc32)cc1)c1ccccc1Cl (stereo not given)  UniProt:Q00788             140
4  CN(C)C1CCCN(C(=O)c2ccc(NC(=O)c3ccccc3[N+](=O)[O-])cc2)c2ccccc21 (stereo not given)  UniProt:Q00788              71

Next item in the queue.
(Q) What measured IC50 goes with Cc1ccccc1C(=O)Nc1ccc(C(=O)N2CCCC(N(C)CC#N)c3ccccc32)cc1 (stereo not given) ?
(A) 25
